- Study system: NOX1/A1/O1 (Homo sapiens, UniProt Q9Y5S8)
- Construct: expressed in transfected cells; host or cells: HEK293
- Test protocol: NOX1-dependent ROS production, luminescence assay for O2.- in HEK293 cells expressing the NOX1 complex
- Format: cell-based
- Run conditions: IC50 ± SE, NOX1/A1/O1 HEK 293, 3-5 independent experiments; exposure for 30 min
Endpoint label: IC50 (nM)

[
  {
    "Compound": "O=[N+]([O-])c1cccc2c1-c1c(cccc1[N+](=O)[O-])[I+]2.[Br-] [Compound 49, 1,9-dinitrodibenzo[b,d]iodolium bromide]",
    "Measured number": 1020
  }
]

* * *

- Study system: NOX5 (Homo sapiens, UniProt Q96PH1)
- Sequence (Q96PH1 whole entry): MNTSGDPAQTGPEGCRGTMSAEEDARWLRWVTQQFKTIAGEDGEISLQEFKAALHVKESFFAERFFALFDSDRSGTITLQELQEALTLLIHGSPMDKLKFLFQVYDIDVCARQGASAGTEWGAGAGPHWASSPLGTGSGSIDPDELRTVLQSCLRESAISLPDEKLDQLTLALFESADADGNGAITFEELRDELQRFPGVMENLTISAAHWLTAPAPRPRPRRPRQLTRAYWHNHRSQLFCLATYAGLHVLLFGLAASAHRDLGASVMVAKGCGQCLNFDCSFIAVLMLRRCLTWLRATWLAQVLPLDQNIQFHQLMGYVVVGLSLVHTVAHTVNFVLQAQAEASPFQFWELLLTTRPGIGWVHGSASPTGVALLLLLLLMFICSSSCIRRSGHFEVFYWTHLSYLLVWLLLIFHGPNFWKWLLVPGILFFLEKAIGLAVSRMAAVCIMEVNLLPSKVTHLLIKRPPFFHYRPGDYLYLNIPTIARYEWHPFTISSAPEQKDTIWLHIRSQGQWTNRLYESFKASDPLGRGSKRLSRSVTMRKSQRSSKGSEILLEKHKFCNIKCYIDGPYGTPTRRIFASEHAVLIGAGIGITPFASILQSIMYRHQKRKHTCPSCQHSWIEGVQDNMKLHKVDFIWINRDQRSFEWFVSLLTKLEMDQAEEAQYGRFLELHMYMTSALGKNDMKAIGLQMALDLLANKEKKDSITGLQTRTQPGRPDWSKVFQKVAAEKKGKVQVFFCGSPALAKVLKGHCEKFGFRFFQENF
- Test protocol: NOX5-dependent ROS production, luminescence assay for O2.- in UACC257 melanoma cells
- Assay type: cell-based
- Run conditions: 3-5 independent experiments; exposure for 30 min; read-out: IC50 ± SE, NOX5 UACC-257

[
  {
    "Compound": "CN(C)Cc1ccc2c(c1)[I+]c1cc(CN(C)C)ccc1-2.[I-] [Compound 24]",
    "IC50": "2090 nM"
  },
  {
    "Compound": "COC(=O)c1ccc2c(c1)[I+]c1ccccc1-2.Cc1ccc(S(=O)(=O)[O-])cc1 [Compound 21]",
    "IC50": "55 nM"
  },
  {
    "Compound": "O=S(=O)([O-])C(F)(F)F.c1csc([I+]c2cccs2)c1 [Compound 3, di-2-thienyliodonium triflate]",
    "IC50": "1200 nM"
  },
  {
    "Compound": "O=[N+]([O-])c1ccc2c(c1)[I+]c1cc([N+](=O)[O-])ccc1-2.[Br-] [Compound 15, Dibenziodolium, 3,7-dinitro-, bromide]",
    "IC50": "208 nM"
  },
  {
    "Compound": "[Cl-].c1csc([I+]c2cccs2)c1 [Compound 1, di-2-thienyliodonium chloride, reference compound]",
    "IC50": "3780 nM"
  },
  {
    "Compound": "Brc1ccc2c(c1)[I+]c1cc(Br)ccc1-2.[Br-] [Compound 16, Dibenziodolium, 3,7-dibromo-, bromide]",
    "IC50": "44 nM"
  }
]

* * *

- Study system: NOX2 (Homo sapiens)
- Construct: fully differentiated HL-60 cells expressing active NOX2; endogenous in cells; host or cells: differentiated HL-60
- Test protocol: NOX2-dependent ROS production, luminescence assay for O2.- in differentiated HL-60 cells
- Format: cell-based
- Run conditions: 3-5 independent experiments; exposure for 30 min; read-out: IC50 ± SE, NOX2 HL-60
Listed below: IC50 values for each entry.

[
  {
    "Compound": "O=S(=O)([O-])C(F)(F)F.c1csc([I+]c2cccs2)c1 [Compound 3, di-2-thienyliodonium triflate]",
    "Study system": "NOX2 (Homo sapiens)",
    "IC50": "1490 nM"
  },
  {
    "Compound": "CN(C)Cc1ccc2c(c1)[I+]c1cc(CN(C)C)ccc1-2.[I-]",
    "Study system": "NOX2 (Homo sapiens)",
    "IC50": "4380 nM"
  },
  {
    "Compound": "COC(=O)c1ccc2c(c1)[I+]c1ccccc1-2.Cc1ccc(S(=O)(=O)[O-])cc1",
    "Study system": "NOX2 (Homo sapiens)",
    "IC50": "71 nM"
  },
  {
    "Compound": "O=[N+]([O-])c1ccc2c(c1)[I+]c1cc([N+](=O)[O-])ccc1-2.[Br-] [Compound 15, Dibenziodolium, 3,7-dinitro-, bromide]",
    "Study system": "NOX2 (Homo sapiens)",
    "IC50": "310 nM"
  },
  {
    "Compound": "Brc1ccc2c(c1)[I+]c1cc(Br)ccc1-2.[Br-] [Compound 16, Dibenziodolium, 3,7-dibromo-, bromide]",
    "Study system": "NOX2 (Homo sapiens)",
    "IC50": "127 nM"
  },
  {
    "Compound": "[Cl-].c1csc([I+]c2cccs2)c1 [Compound 1, di-2-thienyliodonium chloride, reference compound]",
    "Study system": "NOX2 (Homo sapiens)",
    "IC50": "1500 nM"
  }
]

* * *

Listed below: pIC50 values for each entry.
- System: HT-29 human colon cancer cells
- Test protocol: Clonogenic assay, HT-29 cells
- Format: cell-based
- Run conditions: Homo sapiens, HT-29, 240 h, read-out: IC50 clonogenic survival, 10 days drug exposure, 10 days exposure
pIC50: −log10 of the molar value.

[
  {
    "Compound": "O=[N+]([O-])c1ccc2c(c1)[I+]c1cc([N+](=O)[O-])ccc1-2.[Br-] [Compound 15, Dibenziodolium, 3,7-dinitro-, bromide]",
    "Study system": "HT-29 human colon cancer cells",
    "pIC50": "> 8.00"
  },
  {
    "Compound": "Brc1ccc2c(c1)[I+]c1cc(Br)ccc1-2.[Br-] [Compound 16, Dibenziodolium, 3,7-dibromo-, bromide]",
    "Study system": "HT-29 human colon cancer cells",
    "pIC50": "> 8.00"
  }
]
